# Tested on: E. coli
# EXPERIMENTAL_PROTOCOL: Antibacterial activity (MIC) against E. coli
# Assay type: cell-based
# REPORTED_CONDITIONS: Escherichia coli, not active
ATTRIBUTE_MEASURED: MIC

The compound CC(C)C[C@H](NC(=O)[C@H](CCCCN)NC(=O)N[C@H](C(=O)O)C(C)C)C(=O)NCCCN[C@H](C[C@H]1O[C@@H](n2ccc(=O)[nH]c2=O)[C@H](O)[C@@H]1O)C(=O)O showed MIC equal to > 50 µg/mL

The compound CC(C)C[C@@H](NC(=O)[C@H](CCCCN)NC(=O)N[C@H](C(=O)O)C(C)C)C(=O)NCCCN[C@H](C[C@H]1O[C@@H](n2ccc(=O)[nH]c2=O)[C@H](O)[C@@H]1O)C(=O)O showed MIC equal to > 50 µg/mL

The compound CC(C)C[C@@H](NC(=O)[C@H](CCCCN)NC(=O)N[C@H](C(=O)O)C(C)C)C(=O)NCCCN[C@H](C(=O)O)[C@@H](O)[C@H]1O[C@@H](n2ccc(=O)[nH]c2=O)[C@H](O)[C@@H]1O [Compound 17, 5′-epi-D-Leu muraymycin analogue] showed MIC equal to > 50 µg/mL

The compound CC(C)C[C@@H](NC(=O)[C@H](CCCCN)NC(=O)N[C@H](C(=O)O)C(C)C)C(=O)NCCCN[C@@H](C(=O)O)[C@H](O)[C@H]1O[C@@H](n2ccc(=O)[nH]c2=O)[C@H](O)[C@@H]1O [Compound 15, 6′-epi-D-Leu muraymycin analogue] showed MIC equal to > 50 µg/mL

The compound CC(C)C[C@H](NC(=O)[C@H](CCCCN)NC(=O)N[C@H](C(=O)O)C(C)C)C(=O)NCCCN[C@H](C(=O)O)[C@@H](O)[C@H]1O[C@@H](n2ccc(=O)[nH]c2=O)[C@H](O)[C@@H]1O [Compound 16, 5′-epi-L-Leu muraymycin analogue] showed MIC equal to > 50 µg/mL

The compound CC(C)C[C@@H](NC(=O)[C@H](CCCCN)NC(=O)N[C@H](C(=O)O)C(C)C)C(=O)NCCCN[C@@H](C[C@H]1O[C@@H](n2ccc(=O)[nH]c2=O)[C@H](O)[C@@H]1O)C(=O)O showed MIC equal to > 50 µg/mL

The compound CC(C)C[C@H](NC(=O)[C@H](CCCCN)NC(=O)N[C@H](C(=O)O)C(C)C)C(=O)NCCCN[C@@H](C[C@H]1O[C@@H](n2ccc(=O)[nH]c2=O)[C@H](O)[C@@H]1O)C(=O)O showed MIC equal to > 50 µg/mL

The compound CC(C)C[C@H](NC(=O)[C@H](CCCCN)NC(=O)N[C@H](C(=O)O)C(C)C)C(=O)NCCCN[C@@H](C(=O)O)[C@H](O)[C@H]1O[C@@H](n2ccc(=O)[nH]c2=O)[C@H](O)[C@@H]1O [Compound 14, 6′-epi-L-Leu muraymycin analogue] showed MIC equal to > 50 µg/mL
